// pest or weed control at 62 g/ha lookup, one value per entry
system: hairy beggarticks (Bidens pilosa); assay: Test F pre-/postemergence plant response; type: in vivo; settings: Bidens pilosa, pre-emergence; 62 g ai/ha Preemergence; scale 0 to 100; read-out: Plant response rating, Beggarticks
Field: numeric (%). Do not append units.

smiles.input	system.name	measure.name	endpoint.unit	experimental.result
FC(F)c1cc(-c2ccccc2Oc2ncc(Br)cn2)no1	hairy beggarticks (Bidens pilosa)	pest or weed control at 62 g/ha	%	0
FC(F)c1cc(-c2ccccc2Oc2ncc(Cl)cn2)no1	hairy beggarticks (Bidens pilosa)	pest or weed control at 62 g/ha	%	20

Under hairy beggarticks (Bidens pilosa): pest or weed control at 62 g/ha value of Fc1cccc(Oc2ncc(Br)cn2)c1-c1cc(C(F)F)no1 ?
30

Under hairy beggarticks (Bidens pilosa): pest or weed control at 62 g/ha value of Fc1cccc(Oc2ncc(Cl)cn2)c1-c1cc(C(F)F)on1 ?
0

----------
system: barnyardgrass (Echinochloa crus-galli); test: Test B pre-/postemergence plant response; format: in vivo; conditions: 125 g ai/ha, postemergence; 0 to 100 scale, 0 no effect, 100 complete control
Text: […]
// Plant response rating, Barnyardgrass lookup, one value per entry
Lab note: record the figure alone, no unit after it.

molecule	experimental.result
Clc1cnc(Oc2ccccc2-c2ccon2)nc1 [Compound 185]	10

What measured Plant response rating, Barnyardgrass goes with Clc1cnc(Oc2ccccc2-c2cccnc2)nc1 [Compound 4] ?
0

What measured Plant response rating, Barnyardgrass goes with Cc1cnc(Oc2ccccc2-c2cc(C(F)F)no2)nc1 [Compound 211] ?
10

What measured Plant response rating, Barnyardgrass goes with Clc1ccc(-c2c(I)cccc2Oc2ncc(Cl)cn2)nc1 [Compound 205] ?
0

What measured Plant response rating, Barnyardgrass goes with FC(F)(F)COc1cc(-c2ccccc2Oc2ncc(Cl)cn2)on1 [Compound 176] ?
30

What measured Plant response rating, Barnyardgrass goes with Clc1cnc(Oc2ccccc2-c2ccno2)nc1 [Compound 154] ?
0

What measured Plant response rating, Barnyardgrass goes with FC(F)(F)c1cc(-c2c(Br)cccc2Oc2ncc(Cl)cn2)no1 [Compound 170] ?
0

What measured Plant response rating, Barnyardgrass goes with Cc1cc(-c2ccccc2Oc2ncc(Cl)cn2)no1 [Compound 60] ?
50

----------
// Plant response rating, Wheat lookup, one value per entry
tested on: wheat (Triticum aestivum); test: Test B pre-/postemergence plant response; type: in vivo; settings: Postemergence, 500 g ai/ha; 0 to 100 scale (0 no effect, 100 complete control)
Lab note: record the figure alone, no unit after it.

compound	Plant response rating, Wheat
Clc1cnc(Oc2ccccc2-c2cccs2)nc1 [Compound 182]	0
FC(F)(F)c1cc(-c2ccccc2Oc2ncc(Cl)cn2)ncn1 [Compound 54]	0
Cn1nnnc1-c1ccccc1Oc1ncc(Br)cn1 [Compound 49]	20
CC(C)(C)c1cc(-c2ccccc2Oc2ncc(Cl)cn2)no1 [Compound 59]	10

Under wheat (Triticum aestivum): Plant response rating, Wheat value of Cn1ccnc1-c1ccccc1Oc1ncc(Cl)cn1 [Compound 151] ?
0

Under wheat (Triticum aestivum): Plant response rating, Wheat value of Cn1ccc(-c2ccccc2Oc2ncc(Cl)cn2)n1 [Compound 10] ?
0

Under wheat (Triticum aestivum): Plant response rating, Wheat value of Clc1cnc(Oc2ccccc2-c2cccnc2)nc1 [Compound 4] ?
0

----------
test system: kochia (Kochia scoparia); assay: Test B pre-/postemergence plant response; type: in vivo; settings: Postemergence, 31 g ai/ha; 0 to 100 scale (0 no effect, 100 complete control)
measure.name: Plant response rating, Kochia
Lab note: record the figure alone, no unit after it.

These recorded examples may help you get a feel for the data.
smiles.input	system.name	Plant response rating, Kochia
Fc1cccc(Oc2ncc(Cl)cn2)c1-c1cc(C(F)(F)F)no1	kochia (Kochia scoparia)	100
Clc1cnc(Oc2ccccc2-c2cc(Cl)cnn2)nc1	kochia (Kochia scoparia)	0
Cc1ccnc(-c2ccccc2Oc2ncc(Cl)cn2)c1	kochia (Kochia scoparia)	0

Now look at this entry.
What measured Plant response rating, Kochia goes with CC(F)(F)c1cc(-c2ccccc2Oc2ncc(Cl)cn2)no1 ?
90

----------
test system: chickweed (common chickweed, Stellaria media); test: Test D postemergence plant response; type: in vivo; details: 125 g ai/ha, scale 0 to 100, 0 no effect, 100 complete control
measure.name: Plant response rating, Chickweed
Lab note: record the figure alone, no unit after it.

smiles.input	system.name	experimental.result
FC(F)Oc1cccc(Oc2ncc(Cl)cn2)c1-c1cc(C(F)F)on1	chickweed (common chickweed, Stellaria media)	100
Fc1ccc(Oc2ncc(Cl)cn2)c(-c2cc(C(F)F)on2)c1Cl	chickweed (common chickweed, Stellaria media)	98
Fc1cccc(Oc2ncc(Cl)cn2)c1-c1cc(C2CC2)on1	chickweed (common chickweed, Stellaria media)	95
Fc1ccc(Oc2ncc(Cl)cn2)c(-c2cc(C(F)(Cl)Cl)on2)c1	chickweed (common chickweed, Stellaria media)	100
FC(F)(F)c1cc(-c2c(Cl)cccc2Oc2ncc(Cl)cn2)no1	chickweed (common chickweed, Stellaria media)	80
Cc1cc(-c2ccccc2Oc2ncc(Cl)cn2)no1	chickweed (common chickweed, Stellaria media)	75
N#Cc1cccc(Oc2ncc(Cl)cn2)c1-c1cc(C(F)F)on1	chickweed (common chickweed, Stellaria media)	95
FC(F)(F)c1cc(-c2c(Br)cccc2Oc2ncc(Cl)cn2)no1	chickweed (common chickweed, Stellaria media)	100
FC(F)(Cl)c1cc(-c2ccccc2Oc2ncc(Cl)cn2)no1	chickweed (common chickweed, Stellaria media)	80
FC(F)(F)c1cc(-c2ccccc2Oc2ncc(Cl)cn2)ncn1	chickweed (common chickweed, Stellaria media)	5

Now look at this entry.
What measured Plant response rating, Chickweed goes with FCc1cc(-c2ccccc2Oc2ncc(Cl)cn2)on1 ?
80

----------
system: blackgrass (Alopecurus myosuroides); assay: Test B postemergence plant response; format: in vivo; conditions: Postemergence, 31 g ai/ha; 0 to 100 scale (0 no effect, 100 complete control)
measure.name: Plant response rating, Blackgrass

These recorded examples may help you get a feel for the data.
smiles.input	Plant response rating, Blackgrass
Clc1cnc(Oc2ccccc2-c2ccns2)nc1	0
CC(F)(F)c1cc(-c2ccccc2Oc2ncc(Cl)cn2)on1	10
Cc1cc(-c2c(F)cccc2Oc2ncc(Cl)cn2)on1	30

What measured Plant response rating, Blackgrass goes with C=C(C)c1cc(-c2ccccc2Oc2ncc(Cl)cn2)on1 ?
0

What measured Plant response rating, Blackgrass goes with FC(Cl)(Cl)c1cc(-c2ccccc2Oc2ncc(Cl)cn2)no1 ?
10

What measured Plant response rating, Blackgrass goes with Cc1csc(-c2ccccc2Oc2ncc(Cl)cn2)c1 ?
0

What measured Plant response rating, Blackgrass goes with Cc1cc(-c2c(F)cccc2Oc2ncc(Br)cn2)on1 ?
20

What measured Plant response rating, Blackgrass goes with FCc1cc(-c2ccccc2Oc2ncc(Cl)cn2)on1 ?
40

----------
test system: giant foxtail (Setaria faberii); assay: Test B pre-/postemergence plant response; assay type: in vivo; settings: Preemergence, 125 g ai/ha; 0 to 100 scale where 0 is no effect and 100 is complete control
From the text: […]
measure.name: Plant response rating, Foxtail, Giant
Lab note: record the figure alone, no unit after it.

What measured Plant response rating, Foxtail, Giant goes with Fc1cccc(Oc2ncc(Br)cn2)c1-c1cc(C(F)F)on1 ?
100

What measured Plant response rating, Foxtail, Giant goes with CC(C)n1cnc(-c2ccccc2Oc2ncc(Cl)cn2)n1 ?
0

What measured Plant response rating, Foxtail, Giant goes with Clc1cnc(Oc2ccccc2-c2cccnc2)nc1 ?
10

What measured Plant response rating, Foxtail, Giant goes with FC(F)(F)c1cnc(Oc2ccccc2-c2cncs2)nc1 ?
0

What measured Plant response rating, Foxtail, Giant goes with FC(F)(F)c1nccc(-c2ccccc2Oc2ncc(Cl)cn2)n1 ?
10

----------
tested on: pigweed (Amaranthus retroflexus); experiment: Test B pre-/postemergence plant response; type: in vivo; details: 31 g ai/ha, Preemergence; 0 to 100 scale where 0 is no effect and 100 is complete control
// Plant response rating, Pigweed lookup, one value per entry
Lab note: record the figure alone, no unit after it.

These recorded examples may help you get a feel for the data.
smiles.input	Plant response rating, Pigweed
FC(F)(F)c1cc(-c2c(Cl)cccc2Oc2ncc(Br)cn2)on1	100
Clc1cnc(Oc2ccccc2-c2cnccn2)nc1	0

What measured Plant response rating, Pigweed goes with Brc1cnc(Oc2ccccc2-c2ccno2)nc1 ?
0

What measured Plant response rating, Pigweed goes with CCOC(OCC)c1cc(-c2ccccc2Oc2ncc(Cl)cn2)on1 ?
0

What measured Plant response rating, Pigweed goes with FC(Cl)(Cl)c1cc(-c2ccccc2Oc2ncc(Cl)cn2)no1 ?
30

----------
tested on: pigweed (Amaranthus retroflexus); assay: Test B pre-/postemergence plant response; assay type: in vivo; settings: 31 g ai/ha, Postemergence; 0 to 100 scale, 0 no effect, 100 complete control
// Plant response rating, Pigweed lookup, one value per entry
Lab note: record the figure alone, no unit after it.

What measured Plant response rating, Pigweed goes with N#Cc1cccc(Oc2ncc(Cl)cn2)c1-c1ccsc1 ?
30

What measured Plant response rating, Pigweed goes with FC(F)c1cc(-c2c(Cl)cccc2Oc2ncc(Cl)cn2)on1 ?
100

What measured Plant response rating, Pigweed goes with CCOC(OCC)c1cc(-c2ccccc2Oc2ncc(Cl)cn2)on1 ?
0

What measured Plant response rating, Pigweed goes with Fc1cc(F)c(-c2cc(C(F)F)no2)c(Oc2ncc(Cl)cn2)c1 ?
0

What measured Plant response rating, Pigweed goes with Clc1cnc(Oc2ccccc2-c2cc(C(Cl)Cl)on2)nc1 ?
60

What measured Plant response rating, Pigweed goes with Fc1ccc(Oc2ncc(Cl)cn2)c(-c2cc(C(F)F)on2)c1Br ?
100
